# TEST: Leishmania major promastigote growth inhibition, primary screen (AID 1063);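 also: promastigotes grown with compound for 44 hours at 28 °C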
# CONDITION_DESCRIPTION: Leishmania major promastigotes, resazurin fluorescence viability; at 10 µM; active compounds read high
The campaign covered roughly 200,000 compounds. About 18,000 (9%) were called active. The sample as a whole holds a higher share of actives than the screen did.
READOUT_TYPE: inhibition (%)
# unit: % | format: bare number

CCN(c1ccccc1)S(=O)(=O)c1ccc(N)cc1; -4.44

### Prompt Item under review: Cc1occc1C(=O)Nc1nnc(C2CCCCC2)s1 . Reported inhibition?
### Response 7.17

### Prompt What value of inhibition has been reported for the following compound? S=c1[nH]nc(/C=C/c2ccccc2)o1
### Response -11.6

### Prompt Returns the measured inhibition for the input compound. Input: Cc1cccc(N(CC(=O)N2CCOCC2)S(C)(=O)=O)c1
### Response 0.32

### Prompt // query inhibition value for entry O=S(=O)(c1ccccc1)N(CC(O)CN1CCCCC1)c1ccccc1 (stereo not drawn)
### Response 45

### Prompt What measured inhibition goes with c1ccc(-c2cc3c(NCC4COc5ccccc5O4)ncnc3s2)cc1 (stereo not drawn) ?
### Response 98.8

### Prompt Which inhibition value is on record for CC1CCCN(Cc2nc3c(c(=O)n(C)c(=O)n3C)n2CC(=O)c2ccccc2)C1 (stereo not drawn) ?
### Response 22.4

### Prompt # query: inhibition of entry O=C(Oc1cccc(O)c1)C1CCCCC1
### Response -0.1

----------
# TEST: Leishmania major promastigote growth inhibition, primary screen (AID 1063);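 also: promastigotes grown with compound for 44 hours at 28 °C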
# CONDITION_DESCRIPTION: Leishmania major promastigotes, resazurin fluorescence viability; at 10 µM; active compounds read high
The campaign covered roughly 200,000 compounds. About 18,000 (9%) were called active. The list comes from a sample in which actives are over-represented; it also holds close analogues and randomly drawn compounds.
READOUT_TYPE: inhibition (%)
Note: unit % is implicit; provide only the numeric part.

Sample answers from the record:
C=CCn1c(CNC(=O)c2ccco2)nnc1SCC(=O)c1ccc(OC)cc1; -7.42
Clc1ccc(N/N=C/c2cccs2)nn1; -2.51
CN(Cc1ccccn1)Cc1nc(-c2ccc(Cl)cc2)no1; -2.18
COc1ccc(-c2nn(-c3ccccc3)cc2/C=C\C(=O)Nc2ccc(C(=O)O)cc2)cc1; -5.87
O=C(Nc1cccc([N+](=O)[O-])c1)Nc1ccc(Cl)cn1; -0.05

### Prompt Entry CCc1n[nH]c(=S)n1/N=C/c1c[nH]c2ccc(Br)cc12 : reported inhibition = ?
### Response 11.7

### Prompt Any idea what its inhibition is? The compound is C=CCc1ccc(OCC(O)CN2CCN(Cc3ccccc3)CC2)c(OC)c1 (stereo unspecified)
### Response 87.8

### Prompt Returns the measured inhibition for the input compound. Input: COc1ccc(NC(=O)C(Br)C(C)C)cc1 (stereo unspecified)
### Response -2.81

### Prompt I would be grateful if you could share the reported inhibition for Cc1cc(C)cc(N(C(C)C(=O)Nc2c(C)n(C)n(-c3ccccc3)c2=O)S(C)(=O)=O)c1 (stereo unspecified) .
### Response -3.81

### Prompt Query: inhibition; subject: COCC(C)n1c(C)cc(C(=O)COc2ccc(C)nc2[N+](=O)[O-])c1C (stereo unspecified)
### Response 3.94

### Prompt Fill in the blank: the reported inhibition of COc1cc(NC(=O)COc2ccccc2Cl)ccc1NC(=O)C(C)C is ____.
### Response 1.32

### Prompt Param item = Cc1ccc(OCC(O)CN2CCN(CC(O)COc3ccc(C)cc3Cl)CC2)c(Cl)c1 (stereo unspecified) ; retrieve measured inhibition.
### Response -0.86
